System: MOLM14
Assay Explanation: cells
Test Context: Homo sapiens, MOLM-14, 72 h
Answer each item with its documented IC50.

Chemical Smiles	IC50
Cn1ncnc1[C@H]1c2n[nH]c(=O)c3cc(F)cc(c23)N[C@@H]1c1ccc(F)cc1	4.46 µM

Proceeding to the next molecule to report its IC50.
[in] # assay system MOLM14: give IC50 of "C[C@]1(c2nc3c(C(N)=O)cccc3[nH]2)CCCN1"
[out] > 25 µM
